# System: Zymoseptoria tritici (SEPTTR-184)
# assay.text: Efficacy of target gene fragments (MgCytB dsRNA tiles) on wheat plants, SEPTTR-184
# Type: in vivo
# study.conditions: 1DP (preventative); sum over 200, 50, 12.5, 3.125 ppm
measure: Sum of Disease Control SEPTTR-184 1DP (%)
Return type: number; implicit unit %.

Data request: I'd like to know its Sum of Disease Control SEPTTR-184 1DP. The molecule in question is MgCytB-T6: 258 bp dsRNA of Zymoseptoria CytB region T6, location 775-1032 (SEQ ID NO:9) (nucleic acid, listed as Zymoseptoria tritici, complementary strand of dsRNA) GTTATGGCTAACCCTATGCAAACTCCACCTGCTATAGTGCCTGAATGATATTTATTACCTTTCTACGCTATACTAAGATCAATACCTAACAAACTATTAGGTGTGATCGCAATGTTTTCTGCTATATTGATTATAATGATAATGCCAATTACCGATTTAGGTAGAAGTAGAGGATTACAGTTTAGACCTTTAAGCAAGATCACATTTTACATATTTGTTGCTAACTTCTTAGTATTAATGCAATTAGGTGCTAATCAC
Data returned: 293
